EC50 for assorted binders
molecular target: T1, human SIRPα1 expressed on cells (human, UniProt P78324 31-504); experiment: flow cytometry, ExpiCHO-S cells
T1 construct: whole, on cells; also called ExpiCHO-S (huSIRPα1); CHO cells expressing huSIRPα1
T1 sequence (P78324 other isoform, or with tags, fused parts or gaps limits assumed): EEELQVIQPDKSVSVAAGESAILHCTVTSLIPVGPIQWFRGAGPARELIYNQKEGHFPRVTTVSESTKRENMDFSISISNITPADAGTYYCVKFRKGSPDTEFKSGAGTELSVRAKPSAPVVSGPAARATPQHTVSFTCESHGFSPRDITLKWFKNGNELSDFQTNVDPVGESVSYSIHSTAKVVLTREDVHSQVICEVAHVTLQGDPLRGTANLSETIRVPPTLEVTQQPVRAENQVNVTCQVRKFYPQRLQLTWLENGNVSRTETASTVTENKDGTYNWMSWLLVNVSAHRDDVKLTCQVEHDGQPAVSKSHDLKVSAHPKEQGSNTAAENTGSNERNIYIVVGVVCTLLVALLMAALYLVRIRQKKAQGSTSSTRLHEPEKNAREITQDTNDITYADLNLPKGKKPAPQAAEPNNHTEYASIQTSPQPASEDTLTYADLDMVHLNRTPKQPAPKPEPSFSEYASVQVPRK
Parameter Measured: EC50 (µg/mL)

| Binder | Unit Descriptor | Numeric Value |
| --- | --- | --- |
| anti-SIRPα antibody 10 humanized (antibody, human IgG1, kappa, L234A L235A, V domains shown, Humanized, human IgG1 LALA / kappa) VH: KVEESGGGLVQPGGSLRLSCAASGFSLSSYVMGWVRQAPGKGLEWVSIISSSGSPYYASWVNGRFTISKDNSEGMVYLQMNSLRAEDTAVYYCARVGPLGVDYFNIWGQGTTVTVSS VL: DIVMTQSPDSLAVSLGERATINCQAGQSINSYLAWYQQKPGQPPKLLIYYASTLESGVPDRFSGSGSGTDFTLTISSLQAEDVAVYYCQSWHYISRSYAFGGGTKLEIKR | µg/mL | 0.38 |
| anti-SIRPα antibody 12 humanized (antibody, human IgG1, kappa, L234A L235A, V domains shown, Humanized, human IgG1 LALA / kappa) VH: VQLVESGGRLVQPGTPLTLSCTVSGFSLSSYVMGWFRQAPGKGLEYIGIISSSGSPYYASWVNGRFTISKTSTTMDLKMNSLRSEDTATYFCARVGPLGVDYFNIWGPGTLVTVSS VL: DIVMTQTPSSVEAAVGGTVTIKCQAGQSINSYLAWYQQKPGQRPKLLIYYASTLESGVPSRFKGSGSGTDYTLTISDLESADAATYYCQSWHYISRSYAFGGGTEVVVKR | µg/mL | 0.1 |
| anti-SIRPα antibody 5 (antibody, human IgG1, kappa, L234A L235A, V domains shown, Rabbit variable regions on human IgG1 LALA / kappa) VH: QSVEESGGRLVTPGTPLTLTCTVSGFSLSSYVMGWFRQAAGKGLEYIGYINADGSPYYATWVNGRFTISKTPTTMDLKINSPTTEDTATYFCARVGPLGVDYFNIWGPGTLVTVSL VL: DIVMTQTPASVEAAVGGTVTIKCQASQSINRYLTWYQQKPGQRPKLLIYYASTLESGVPSRFEGSGSGTDYTLTISDLESADAATYYCQSYYYISRTYAFGGGTEVVVKR | µg/mL | 0.27 |
| anti-SIRPα antibody 13 humanized (antibody, human IgG1, V domains shown, Humanized, human IgG1 LALA / kappa) VH: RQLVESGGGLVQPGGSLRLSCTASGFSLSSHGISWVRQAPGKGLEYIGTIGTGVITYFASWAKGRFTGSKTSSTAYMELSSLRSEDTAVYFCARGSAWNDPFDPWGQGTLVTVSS VL: AIQMTQSPSSLSASVGDRVTITCQASQSVYGNNDLAWYQQKPGKAPKLLIYLASTLATGVPSRFSGSGSGTDFTLTISSLQPEDFATYYCLGGGDDEADNVFGGGTKVEIKR | µg/mL | 0.36 |
| anti-SIRPα antibody 14 humanized (antibody, human IgG1, V domains shown, Humanized, human IgG1 LALA / kappa) VH: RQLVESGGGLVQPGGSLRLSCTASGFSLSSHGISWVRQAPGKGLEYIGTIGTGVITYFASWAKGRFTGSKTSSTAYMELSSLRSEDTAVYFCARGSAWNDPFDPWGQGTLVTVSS VL: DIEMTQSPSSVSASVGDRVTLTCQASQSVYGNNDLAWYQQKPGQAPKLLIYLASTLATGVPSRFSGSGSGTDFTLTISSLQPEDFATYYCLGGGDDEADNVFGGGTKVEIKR | µg/mL | 0.37 |
